System: SCID mice bearing twin HEK293-CCK2i4svR and wtHEK293 tumors
Assay: Biodistribution in SCID mice bearing twin HEK293-CCK2i4svR and wtHEK293 xenografts
Format: in vivo
Details: 24 h pi
We begin with a simple list: items and their reported Biodistribution, Intestines.
Unit %IA/g implied. Number only.

Some solved cases for reference:
compound	readout_number
CC(C)(C)C(=O)CN1C(=O)[C@H](NC(=O)Nc2cccc(C(=O)NCCOCCOCCOCCNC(=O)[C@H](CCC(=O)O)NC(=O)CCC(C(=O)[O-])N3CCN(CC(=O)[O-])CCN(CC(=O)[O-])CC3)c2)CN(C2CCCCC2)c2ccccc21.[67Ga+3] (stereo in doubt) [[^67Ga]Ga-GAS2]	0.31
CC(C)(C)C(=O)CN1C(=O)[C@H](NC(=O)Nc2cccc(C(=O)NCCOCCOCCOCCNC(=O)[C@H](CCC(=O)O)NC(=O)CN3CCN(CC(=O)[O-])CCN(CC(=O)[O-])CCN(CC(=O)[O-])CC3)c2)CN(C2CCCCC2)c2ccccc21.[67Ga+3] (stereo in doubt) [[^67Ga]Ga-GAS1]	0.32
CC(C)(C)C(=O)CN1C(=O)[C@H](NC(=O)Nc2cccc(C(=O)NCCOCCOCCOCCNC(=O)[C@H](CCC(=O)O)NC(=O)CN3CCN(CC(=O)[O-])CCN(CC(=O)[O-])CCN(CC(=O)[O-])CC3)c2)CN(C2CCCCC2)c2ccccc21.[177Lu+3] (stereo in doubt) [[^177Lu]Lu-GAS1]	0.32

Biodistribution, Intestines recorded for this compound, CC(C)(C)C(=O)CN1C(=O)[C@H](NC(=O)Nc2cccc(C(=O)NCCOCCOCCOCCNC(=O)[C@H](CCC(=O)O)NC(=O)CCC(C(=O)O)N3CCN(CC(=O)[O-])CCN(CC(=O)[O-])CCN(CC(=O)[O-])CC3)c2)CN(C2CCCCC2)c2ccccc21.[67Ga+3] (stereo in doubt) [[^67Ga]Ga-GAS3] , is 0.39

Biodistribution, Intestines recorded for this compound, CC(C)(C)C(=O)CN1C(=O)[C@H](NC(=O)Nc2cccc(C(=O)NCCOCCOCCOCCNC(=O)[C@@H](CCC(=O)O)NC(=O)CCC(C(=O)[O-])N3CCN(CC(=O)[O-])CCN(CC(=O)[O-])CC3)c2)CN(C2CCCCC2)c2ccccc21.[111In+3] (some centres unmarked) [[^111In]In-GAS2] , is 0.68

Biodistribution, Intestines recorded for this compound, CC(C)(C)C(=O)CN1C(=O)[C@H](NC(=O)Nc2cccc(C(=O)NCCOCCOCCOCCNC(=O)[C@H](CCC(=O)O)NC(=O)CN3CCN(CC(=O)[O-])CCN(CC(=O)[O-])CCN(CC(=O)[O-])CC3)c2)CN(C2CCCCC2)c2ccccc21.[111In+3] (stereo in doubt) [[^111In]In-GAS1] , is 0.59

Biodistribution, Intestines recorded for this compound, CC(C)(C)C(=O)CN1C(=O)[C@H](NC(=O)Nc2cccc(C(=O)NCCOCCOCCOCCNC(=O)[C@@H](CCC(=O)O)NC(=O)CCC(C(=O)O)N3CCN(CC(=O)[O-])CCN(CC(=O)[O-])CCN(CC(=O)[O-])CC3)c2)CN(C2CCCCC2)c2ccccc21.[111In+3] (some centres unmarked) [[^111In]In-GAS3] , is 0.48

Biodistribution, Intestines recorded for this compound, CC(C)(C)C(=O)CN1C(=O)[C@H](NC(=O)Nc2cccc(C(=O)NCCOCCOCCOCCNC(=O)[C@H](CCC(=O)O)NC(=O)CCC(C(=O)O)N3CCN(CC(=O)[O-])CCN(CC(=O)[O-])CCN(CC(=O)[O-])CC3)c2)CN(C2CCCCC2)c2ccccc21.[177Lu+3] (stereo in doubt) [[^177Lu]Lu-GAS3] , is 0.17
